// IC50 lookup, one value per entry
Biological target: HDAC6 human recombinant (Homo sapiens)
Construct: purchased Calbiochem 382180
Assay: HDAC enzyme activity inhibition (in vitro), HDAC6 assay
Assay type: biochemical
Conditions: samples at 0.1, 1, 10, 100 and 1000 nM; 37° C. 60 minutes; fluorescence Ex 390, Em 460; read-out: HDAC6 IC50

Example entries and their recorded answers appear below.
Need IC50 of O=C(c1ccc(C(F)(F)F)cc1)N1CCC(n2c(=O)n(Cc3ccc(-c4nnc(C(F)F)o4)cn3)c3cc(F)ccc32)CC1 [Compound 62] , thanks.
259 nM

Need IC50 of O=c1n(Cc2ccc(-c3nnc(C(F)F)o3)cn2)c2ccccc2n1C1CCS(=O)(=O)CC1 [Compound 13] , thanks.
161 nM

Need IC50 of CN1CCC(n2c(=O)n(Cc3ccc(-c4nnc(C(F)F)o4)cc3F)c3cc(-c4cc(F)ccc4F)ccc32)CC1 [Compound 121] , thanks.
3150 nM

Consider the record given below.
Need IC50 of CN1CCC(c2cc3oc(=O)n(Cc4ccc(-c5nnc(C(F)F)o5)cn4)c3cc2F)CC1 [Compound 334] , thanks.
64 nM

---

Target: HDAC6 human recombinant (Homo sapiens, UniProt Q9UBN7)
Construct: purchased Calbiochem 382180
Experiment: HDAC enzyme activity inhibition (in vitro), HDAC6 assay
Format: biochemical
Conditions: samples at 0.1, 1, 10, 100 and 1000 nM; 37° C. 60 minutes; fluorescence Ex 390, Em 460; read-out: HDAC6 IC50
measured.property: IC50 (µM)
Give just the number in µM; leave the unit off.

Example entries and their recorded answers appear below.
Need IC50 of O=c1oc2cc(-c3cnc(N4CCN(C5COC5)CC4)nc3)c(F)cc2n1Cc1ccc(-c2nnc(C(F)F)o2)cn1 , thanks.
0.052

Need IC50 of CN1CCC(n2c(=O)n(Cc3ccc(-c4nnc(C(F)F)o4)cn3)c3cc(F)ccc32)CC1 , thanks.
0.022

Need IC50 of CC(C)N1CCC(n2c(=O)n(Cc3ccc(-c4nnc(C(F)F)o4)cc3F)c3cc(F)ccc32)CC1 , thanks.
0.031

Need IC50 of O=c1n(Cc2ccc(-c3nnc(C(F)F)o3)cn2)c2ncccc2n1C1CCN(C2COC2)CC1 , thanks.
0.148

Need IC50 of CN1CCN(c2cc3c(cc2F)n(Cc2ccc(-c4nnc(C(F)F)o4)cn2)c(=O)n3C2COC2)CC1 , thanks.
0.039

Continuing:
Need IC50 of O=c1n(Cc2ccc(-c3nnc(C(F)(F)F)o3)cn2)c2ccccc2n1C1CC2(COC2)C1 , thanks.
0.623

Need IC50 of CN1CCC(n2c(=O)n(Cc3ccc(-c4nnc(C(F)F)o4)cn3)c3cc(F)c(-c4ccoc4)cc32)CC1 , thanks.
0.043

Need IC50 of O=c1n(Cc2ccc(-c3nnc(C(F)F)o3)cc2F)c2cc(F)ccc2n1C1CCN(C2CCSCC2)CC1 , thanks.
0.08

Need IC50 of CN1CCC(n2c(=O)n(Cc3ccc(-c4nnc(C(F)F)o4)cc3F)c3cc(-c4cccnc4)ccc32)CC1 , thanks.
0.602

Need IC50 of O=c1n(Cc2ccc(-c3nnc(C(F)F)o3)cn2)c2cc(F)c(-c3cccnc3)cc2n1[C@@H]1CCCN(C2COC2)C1 , thanks.
0.008

Need IC50 of O=c1n(Cc2ccc(-c3nnc(C(F)F)o3)cc2)c2ncccc2n1C1CCN(C2COC2)CC1 , thanks.
0.391

Need IC50 of Cc1ccc(-c2ccc3c(c2)n(Cc2ccc(-c4nnc(C(F)F)o4)cc2F)c(=O)n3C2CCN(C)CC2)o1 , thanks.
0.95

Need IC50 of O=c1n(Cc2ccc(-c3nnc(C(F)F)o3)cc2)c2cc(F)ccc2n1C1CCN(C2COC2)CC1 , thanks.
0.061

Need IC50 of Cn1c(=O)n(Cc2ccc(-c3nnc(C(F)F)o3)cc2F)c2cc(F)ccc21 , thanks.
0.071

Need IC50 of CN1CC[C@@H](n2c(=O)n(Cc3ccc(-c4nnc(C(F)F)o4)cn3)c3cc(F)c(-c4ccncc4)cc32)C1 , thanks.
0.029

---

// IC50 lookup, one value per entry
Biological target: HDAC6 human recombinant (Homo sapiens)
Construct: purchased Calbiochem 382180
Sequence (Q9UBN7 1-1215): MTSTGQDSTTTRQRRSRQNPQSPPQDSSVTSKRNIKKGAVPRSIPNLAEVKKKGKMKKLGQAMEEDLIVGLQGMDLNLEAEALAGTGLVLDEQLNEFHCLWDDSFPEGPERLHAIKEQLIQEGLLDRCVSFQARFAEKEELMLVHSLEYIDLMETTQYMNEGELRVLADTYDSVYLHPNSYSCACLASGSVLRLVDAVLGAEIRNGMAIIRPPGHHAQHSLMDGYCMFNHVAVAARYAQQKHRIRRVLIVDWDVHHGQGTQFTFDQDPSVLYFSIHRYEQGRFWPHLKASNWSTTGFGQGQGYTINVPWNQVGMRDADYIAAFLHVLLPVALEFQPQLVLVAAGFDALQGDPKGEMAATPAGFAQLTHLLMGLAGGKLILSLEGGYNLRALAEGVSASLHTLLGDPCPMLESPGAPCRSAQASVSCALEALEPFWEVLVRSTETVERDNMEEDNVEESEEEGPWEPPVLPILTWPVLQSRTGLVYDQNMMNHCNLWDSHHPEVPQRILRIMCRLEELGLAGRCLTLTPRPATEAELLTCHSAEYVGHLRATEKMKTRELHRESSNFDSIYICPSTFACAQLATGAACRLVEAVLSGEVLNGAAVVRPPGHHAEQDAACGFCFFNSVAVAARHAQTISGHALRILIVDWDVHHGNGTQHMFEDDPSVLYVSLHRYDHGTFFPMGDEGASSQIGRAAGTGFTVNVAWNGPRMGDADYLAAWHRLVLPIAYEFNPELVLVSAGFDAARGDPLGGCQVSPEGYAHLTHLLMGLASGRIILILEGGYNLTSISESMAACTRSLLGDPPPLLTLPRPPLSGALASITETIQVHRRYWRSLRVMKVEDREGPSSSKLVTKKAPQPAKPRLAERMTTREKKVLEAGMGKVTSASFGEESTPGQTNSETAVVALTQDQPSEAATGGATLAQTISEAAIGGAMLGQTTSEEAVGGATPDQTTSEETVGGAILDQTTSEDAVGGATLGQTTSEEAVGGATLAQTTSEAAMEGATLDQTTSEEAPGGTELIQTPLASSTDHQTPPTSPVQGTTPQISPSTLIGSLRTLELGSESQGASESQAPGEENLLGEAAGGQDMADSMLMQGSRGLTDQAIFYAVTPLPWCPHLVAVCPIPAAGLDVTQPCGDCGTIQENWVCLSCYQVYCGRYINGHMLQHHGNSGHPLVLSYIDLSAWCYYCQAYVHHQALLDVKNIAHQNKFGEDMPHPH
Assay: HDAC enzyme activity inhibition (in vitro), HDAC6 assay
Assay type: biochemical
Conditions: samples at 0.1, 1, 10, 100 and 1000 nM; 37° C. 60 minutes; fluorescence Ex 390, Em 460; read-out: HDAC6 IC50
Give just the number in nM; leave the unit off.

IC50 of Cn1c(=O)n(Cc2ccc(-c3nnc(C(F)F)o3)cn2)c2ccc(-c3ccncc3)cc21 [Compound 209] on HDAC6 human recombinant (Homo sapiens)?
17

Continuing:
IC50 of CN1CCC(n2c(=O)n(Cc3ccc(-c4nnc(C(F)F)o4)cc3)c3ccccc32)CC1 [Compound 5] on HDAC6 human recombinant (Homo sapiens)?
340

IC50 of CN1CCC(n2c(=O)n(Cc3ccc(-c4nnc(C(F)F)o4)cc3F)c3ccc(Cl)cc32)CC1 [Compound 101] on HDAC6 human recombinant (Homo sapiens)?
44

IC50 of CN1CCC(n2c(=O)n(Cc3ccc(-c4nnc(C(F)F)o4)cn3)c3cc(Br)ccc32)CC1 [Compound 141] on HDAC6 human recombinant (Homo sapiens)?
12

---

Biological target: HDAC6 human recombinant (Homo sapiens, UniProt Q9UBN7)
Construct: purchased Calbiochem 382180
Assay: HDAC enzyme activity inhibition (in vitro), HDAC6 assay
Type: biochemical
Conditions: samples at 0.1, 1, 10, 100 and 1000 nM; 37° C. 60 minutes; fluorescence Ex 390, Em 460; read-out: HDAC6 IC50
pIC50: −log10 of the molar value.
The label depends only on pIC50: TRUE if it is at least 7, FALSE if it is smaller.

Would you please look over these solved cases?
Check the entry O=c1n(Cc2ccc(-c3nnc(C(F)F)o3)cn2)c2cc(F)c(-c3cccc4[nH]ccc34)cc2n1CC1CCN(C2COC2)CC1 : does pIC50 equal or exceed 7?
TRUE

Check the entry CC(=O)N1CCC(n2c(=O)n(Cc3ccc(-c4nnc(C(F)F)o4)cn3)c3c(F)cccc32)CC1 : does pIC50 equal or exceed 7?
TRUE

Check the entry Cn1c(=O)n(Cc2ccc(-c3nnc(C(F)F)o3)cc2F)c2cc(-c3cccc(F)c3)ccc21 : does pIC50 equal or exceed 7?
FALSE

Check the entry O=c1n(Cc2ccc(-c3nnc(C(F)F)o3)cn2)c2cc(F)c(-c3ccncc3)cc2n1[C@@H]1CCCN(C2COC2)C1 : does pIC50 equal or exceed 7?
TRUE

Check the entry CN1CCC(n2c(=O)n(Cc3ccc(-c4nnc(C(F)F)o4)cn3)c3cc(C(F)(F)F)ccc32)CC1 : does pIC50 equal or exceed 7?
TRUE

Continuing:
Check the entry CN1CC[C@H](n2c(=O)n(Cc3ccc(-c4nnc(C(F)F)o4)cn3)c3cc(F)c(-c4cccnc4)cc32)C1 : does pIC50 equal or exceed 7?
TRUE

Check the entry CN1CCC(n2c(=O)n(Cc3ccc(-c4nnc(C(F)F)o4)cn3)c3ccc(-c4ccco4)cc32)CC1 : does pIC50 equal or exceed 7?
TRUE

Check the entry O=c1n(Cc2ccc(-c3nnc(C(F)F)o3)cc2F)c2ccccc2n1C1CCN(C2COC2)CC1 : does pIC50 equal or exceed 7?
FALSE

Check the entry Cn1c(=O)n(Cc2ccc(-c3nnc(C(F)F)o3)cc2F)c2cc(-c3cccnc3)ccc21 : does pIC50 equal or exceed 7?
FALSE

Check the entry O=c1oc2cc(-c3cccc4[nH]ccc34)ccc2n1Cc1ccc(-c2nnc(C(F)F)o2)cn1 : does pIC50 equal or exceed 7?
TRUE

Check the entry CN1CCC(n2c(=O)n(Cc3ccc(-c4nnc(C(F)F)o4)cn3)c3cc(F)c(F)cc32)CC1 : does pIC50 equal or exceed 7?
TRUE
